Where these numbers come from: paper PMC5540273

- Test system: PIP5K1A
- CONDITION: concentration: 1 μM, replicates: in singlicate; n = 1;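 note: KINOMEscan kinase panel screen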
READOUT TYPE: %Inh (%)
The response must be a number in % with no trailing unit.

COc1ccc(-c2nc3n(c2-c2ccncc2)CCC3)cc1 [SKF-104493]: 27
Cl.Cl.c1ccc(-c2cc3ccncc3cc2OC2CCNCC2)cc1 [GSK1122999]: 0
CN1CCC(n2cnc(-c3ccc(F)cc3)c2-c2ccnc(NC3CCNCC3)n2)CC1 [SB-229482]: 0
Fc1cccc(COc2ccc(Nc3ncnc4sc(-c5ccc[nH]5)cc34)cc2Cl)c1 [GW707818]: 29
Cl.c1ccc(Cn2ccc3cc(Nc4ncnc5ccccc45)ccc32)cc1 [GW275568]: 0

Input line: Read the entry FC(F)(F)c1cc(Nc2nccc(-c3c(-c4ccc(Cl)cc4)nn4ncccc34)n2)ccc1Cl [GW829351] and write its reported %Inh.
Output line: 10

Input line: Read the entry "O=C(Nc1ccccc1)Nc1ccc(Oc2ccc3nccn3n2)cc1" and write its reported %Inh.
Output line: 4

Input line: Read the entry CNc1nccc(-c2c(-c3ccc(F)cc3)ncn2CCCN2CCOCC2)n1 [SB-222516] and write its reported %Inh.
Output line: 6

Input line: Read the entry c1ccc(-c2ccc3c(-c4ccnc(Nc5ccc6c(c5)OCCO6)n4)cnn3n2)cc1 [GW818941] and write its reported %Inh.
Output line: 0

Input line: Read the entry "OCCOCCn1ccc2ncnc(Nc3ccc(Oc4cccc(Cl)c4)c(Cl)c3)c21" and write its reported %Inh.
Output line: 0

Input line: Read the entry CCC(CC)(CC)n1cnc2c(N)ncnc21 [SKF-97620] and write its reported %Inh.
Output line: 30

====

- Tested on: DCAMKL1
- Construct: gene DCLK1
- CONDITION: concentration: 1 μM, replicates: in singlicate; n = 1
Param threshold (10%) applies to %Inh; output TRUE when value >= threshold, FALSE when value < threshold.

Please review the following examples before continuing.
Cl.c1ccc(Cn2ncc3cc(Nc4ncnc5ccccc45)ccc32)cc1: FALSE
Fc1cccc(COc2ccc(Nc3ncnc4sc(-c5ccc[nH]5)cc34)cc2Cl)c1: TRUE
Oc1ccc2ncnc(Nc3ccc(OCc4ccccc4)cc3)c2c1: FALSE
Cc1ccc(O)cc1Nc1cc(C(F)(F)F)nc2ccc(-c3ccncc3)cc12: TRUE

API: the following record is the query input.
Input line: Hello, I need to know if "Cl.Cn1ccc(-c2cccc(Nc3ccnc4cc(-c5nccs5)ccc34)c2)n1" has measured %Inh not below 10%. Thanks!
Output line: TRUE

====

Each record here notes measured %Inh.
- Tested on: CHEK1
- CONDITION: concentration: 1 μM, replicates: in singlicate; n = 1
The response must be a number in % with no trailing unit.

CSc1ccc(NC2=C(c3ccccc3Cl)C(=O)NC2=O)cc1: 0
COC(=O)c1c(-c2ccccc2)c2cc(Cl)ccc2c(=O)n1Cc1ccc(S(C)(=O)=O)cc1: 0
CCc1nc(-c2cccc(N(C)S(=O)(=O)c3ccccc3)c2)c(-c2ccnc(Nc3ccc(N4CCN(C(C)=O)CC4)nc3)n2)s1: 7
Nc1n[nH]c2nnc(-c3ccccc3)cc12: 10
CCn1c(-c2ccncc2)nc2cnccc21: 0
CC(C)(C)c1ccc(-n2cnc3c(N)ncnc32)cc1: 34
O=C(Nc1n[nH]c2nc(-c3ccco3)c(Br)cc12)c1ccc(CN2CCCC2)cc1.O=C(O)[C@H](O)[C@@H](O)C(=O)O: 0
CS(=O)(=O)CCNCc1nc(-c2ccc3ncnc(Nc4ccc(OCc5cccc(F)c5)c(Cl)c4)c3c2)cs1.Cl: 0
COc1ccc(NC(=O)c2ccc(-c3cc(-c4nnc(C)o4)ccc3C)cc2)cc1: 0
COc1ccc(Nc2nccc(N3CCC(NC(=O)Nc4ccc5c(c4)OCO5)C3)n2)cc1 (stereo not shown): 1

Input line: Read the entry "Fc1cccc(COc2ccc(Nc3ncnc4cc[nH]c34)cc2Cl)c1" and write its reported %Inh.
Output line: 10

Input line: Read the entry "O=C(c1ccc(-c2cc(-c3c[nH]nc3-c3ccccn3)ccn2)cc1)N1CCCC1" and write its reported %Inh.
Output line: 0

Input line: Read the entry "FC(F)(F)c1ccc(-c2nn3ncccc3c2-c2ccnc(Nc3cccc(C(F)(F)F)c3)n2)cc1" and write its reported %Inh.
Output line: 0
